Measured melting point, listed per entry.

Would you please look over these solved cases?
INSERT INTO measurements (line_notation, observed) VALUES
  ('Cc1c(-c2ccc(I)c(F)c2)nc(C(=O)O)c(Cl)c1N', '171 to 172 °C'),
  ('C#Cc1ccc(-c2nc(N)c(OC)c(C(=O)O)n2)cc1', '170.7 to 171.3 °C'),
  ('COC(=O)c1nc(-c2cc(F)c(OC(F)F)cc2F)cc(N)c1Cl', '107.5 to 110.3 °C');

In: What value of measured melting point is listed for COc1c(N)nc(-c2cc(F)c(C)cc2F)nc1C(=O)O ?
Out: 135.9 to 137.7 °C

In: Item under review: Nc1c(F)c(-c2ccc(Br)cc2F)nc(C(=O)O)c1Cl . Reported melting point?
Out: 162 to 164 °C

In: Look at this compound and give its reported melting point. COC(=O)c1nc(-c2ccc(OC(F)F)cc2F)c(F)c(N)c1Cl
Out: 127 to 129 °C

In: // lookup melting point for Nc1cc(-c2ccc(OC(F)F)cc2)nc(C(=O)O)c1Cl
Out: 170.4 to 172.1 °C

In: What value of melting point has been recorded for this entry: COC(=O)c1nc(-c2cc(F)c(C)cc2F)nc(N)c1OC
Out: 163.4 to 164.8 °C

The measurements presented in this section are drawn from patent US9113629B2.
